Known Plate 2 (% inhibition) of a selection of compounds
Molecular target: His6-AspH315–758 (human aspartate/asparagine-β-hydroxylase, AspH) (Homo sapiens, UniProt Q12797)
Construct: N-Terminally His6-tagged human AspH315–758 (His6-AspH315–758) was produced in E. coli BL21 (DE3) cells; made in house; host or cells: E. coli BL21 (DE3), pET-28a(+) vector
Assay: SPE-MS AspH inhibition assay (LOPAC screen at fixed 20 μM and IC50 dose-response), hydroxylation of cyclic peptide hFX-CP101–119
Type: biochemical
Settings: LOPAC compound at 20uM, plate 2; normalised to DMSO and 2,4-PDCA controls
Field note: include the unit after the figure.

Some entries whose results are on file:
Br.CCCN(CCC)[C@@H]1CCc2cccc(O)c2C1 [R-(+)-8-Hydroxy-DPAT hydrobromide]
-10.03%
Cl.Fc1ccc(CN(C2=NCCN2)c2c(Cl)cccc2Cl)cc1 [IMID-4F hydrochloride]
-10.13%
N[C@@H](Cc1ccc(O)c(O)c1)C(=O)O [L-3,4-Dihydroxyphenylalanine]
77.43%

Endpoint output: Plate 2 (% inhibition) of OC[C@H]1NC[C@@H](O)[C@@H]1O . Value? 1.56%

What Plate 2 (% inhibition) value was documented for this compound, O=C(O)CN(CCN(CC(=O)O)CC(=O)O)CCN(CC(=O)O)CC(=O)O [Diethylenetriaminepentaacetic acid, reference compound] ? 100.26%

Name the reported Plate 2 (% inhibition) value associated with the compound COC(=O)[C@@H](N)Cc1ccc(O)c(O)c1.Cl 75.90%

// Plate 2 (% inhibition) lookup, key: Br.CN1CCc2cc(O)cc3c2[C@H]1Cc1ccc(O)c(O)c1-3 87.29%

Which Plate 2 (% inhibition) reading was recorded for the compound O=C(Nc1cc(C(F)(F)F)cc(C(F)(F)F)c1)Nc1c(Br)cc(Br)cc1-c1nn[nH]n1 ? 22.93%

What value of Plate 2 (% inhibition) has been reported for the following compound? Br.C=CCN1CCc2c(cc(O)c(O)c2Cl)C(c2ccccc2)C1 (racemic) [(±)-Chloro-APB hydrobromide, reference compound] 95.82%

# input compound: O=C(c1ccc2c(c1)OCCO2)N1CCCCC1 ; wanted: its Plate 2 (% inhibition) -11.19%

Data request, read-out Plate 2 (% inhibition), for NC(=O)NO [Hydroxyurea] -5.92%

For the compound CCn1c(=O)[nH]c2cc(Cl)c(Cl)cc21 , what Plate 2 (% inhibition) is on record? -9.89%

Which value of Plate 2 (% inhibition) has been reported for Nc1nc(Cl)nc2c1ncn2[C@@H]1O[C@H](COP(=O)(O)OP(=O)(O)OP(=O)(O)O)C(O)C1O (stereo in doubt) in the records? 71.75%

Sample CC(C)NC[C@H](O)c1ccc(O)c(O)c1.O=C(O)C(O)C(O)C(=O)O [R(-)-Isoproterenol (+)-bitartrate] — what was its Plate 2 (% inhibition)? 89.92%

Consider the compound Cc1nc2c(OCc3ccccc3)cccn2c1CC#N and give its measured Plate 2 (% inhibition). -8.22%

Fill in: Plate 2 (% inhibition) of COc1cc(C(O)C(=O)O)ccc1O (racemic) [(±)-Vanillylmandelic acid] is ___ 9.80%

Find the recorded Plate 2 (% inhibition) belonging to COc1cccc(OC)c1-c1cc(C(=O)NC2(C(=O)O)C3CC4CC(C3)CC2C4)nn1-c1ccc(C(=O)N(C)CCCN(C)C)cc1C(C)C (stereo not shown) [SR 142948A] and report it. -24.57%

====

Target: His6-AspH315–758 (human aspartate/asparagine-β-hydroxylase, AspH) (Homo sapiens)
Construct: N-Terminally His6-tagged human AspH315–758 (His6-AspH315–758) was produced in E. coli BL21 (DE3) cells; made in house; host or cells: E. coli BL21 (DE3), pET-28a(+) vector
Sequence (Q12797 315-758): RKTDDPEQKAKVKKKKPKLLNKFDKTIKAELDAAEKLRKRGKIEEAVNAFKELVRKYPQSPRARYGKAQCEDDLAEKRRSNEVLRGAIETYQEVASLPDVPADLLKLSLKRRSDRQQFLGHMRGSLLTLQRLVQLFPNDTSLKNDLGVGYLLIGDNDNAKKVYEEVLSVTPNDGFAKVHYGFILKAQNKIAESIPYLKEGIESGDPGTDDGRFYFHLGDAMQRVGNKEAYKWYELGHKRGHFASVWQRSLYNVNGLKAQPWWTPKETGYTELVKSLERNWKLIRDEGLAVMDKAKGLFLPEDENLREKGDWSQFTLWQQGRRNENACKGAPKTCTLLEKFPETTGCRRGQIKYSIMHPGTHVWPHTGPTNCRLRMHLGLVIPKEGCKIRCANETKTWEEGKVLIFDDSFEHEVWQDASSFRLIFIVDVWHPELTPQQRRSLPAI
Assay: SPE-MS AspH inhibition assay (LOPAC screen at fixed 20 μM and IC50 dose-response), hydroxylation of cyclic peptide hFX-CP101–119
Format: biochemical
Conditions: LOPAC compound at 20uM, plate 3; conversion of substrate peptide
Where a name gives a salt, the structure may show the parent alone.
reported-property: Plate 3 (% conversion) (%)
Just the number please, in %, no unit attached.

What value of Plate 3 (% conversion) on His6-AspH315–758 (human aspartate/asparagine-β-hydroxylase, AspH) (Homo sapiens) does N[C@@H](Cc1ccc(O)c(I)c1)C(=O)O have? 30.44

Requested read-out Plate 3 (% conversion), target or system His6-AspH315–758 (human aspartate/asparagine-β-hydroxylase, AspH) (Homo sapiens), entry CCCCCN(CCCCC)C(=O)C(CCC(=O)O)NC(=O)c1ccc(Cl)c(Cl)c1 (stereo not shown) [Lorglumide sodium] 33.56

Give recorded Plate 3 (% conversion) with His6-AspH315–758 (human aspartate/asparagine-β-hydroxylase, AspH) (Homo sapiens) for the following compound: CCn1cc(C(=O)O)c(=O)c2cc(F)c(N3CCNC(C)C3)c(F)c21 (stereo not shown) [Lomefloxacin hydrochloride] 37.37

Write down the reported Plate 3 (% conversion) of CC(C)NCC(O)c1ccc(O)c(O)c1.Cl (single isomer, unassigned; (-)) [(-)-Isoproterenol hydrochloride] , test system: His6-AspH315–758 (human aspartate/asparagine-β-hydroxylase, AspH) (Homo sapiens). 6.03

Notebook: pull reported Plate 3 (% conversion) for His6-AspH315–758 (human aspartate/asparagine-β-hydroxylase, AspH) (Homo sapiens), entry O=CN(O)CCCP(=O)([O-])O.[Na+] [Fosmidomycin sodium salt hydrate] 34.84

Notebook entry, His6-AspH315–758 (human aspartate/asparagine-β-hydroxylase, AspH) (Homo sapiens) assay: Plate 3 (% conversion) of O=C(C1CCCCC1)N1CC(=O)N2CCc3ccccc3C2C1 (stereo not shown) = ? 41.06

// fetch His6-AspH315–758 (human aspartate/asparagine-β-hydroxylase, AspH) (Homo sapiens) Plate 3 (% conversion) for O=C(/C=C/c1ccc(O)cc1)c1ccc(O)cc1O 31.17

I'm curious: which Plate 3 (% conversion) was measured for CCCCCc1ccc(/C=C/C(=O)Nc2cc(Cl)ccc2C(=O)O)cc1 tested on His6-AspH315–758 (human aspartate/asparagine-β-hydroxylase, AspH) (Homo sapiens)? 29.75

Can you look up Plate 3 (% conversion) on His6-AspH315–758 (human aspartate/asparagine-β-hydroxylase, AspH) (Homo sapiens) for CCCn1c(=O)[nH]c(=O)c2nc[nH]c21 ? 38.43

What measured Plate 3 (% conversion) is associated with CC(C(=O)O)c1cccc(C(=O)c2ccccc2)c1 (stereo not shown) on His6-AspH315–758 (human aspartate/asparagine-β-hydroxylase, AspH) (Homo sapiens)? 34.58

====

Listed here: items and their measured Plate 5 (% inhibition).
Target: His6-AspH315–758 (human aspartate/asparagine-β-hydroxylase, AspH) (Homo sapiens, UniProt Q12797)
Construct: N-Terminally His6-tagged human AspH315–758 (His6-AspH315–758) was produced in E. coli BL21 (DE3) cells; made in house; host or cells: E. coli BL21 (DE3), pET-28a(+) vector
Sequence (Q12797 315-758): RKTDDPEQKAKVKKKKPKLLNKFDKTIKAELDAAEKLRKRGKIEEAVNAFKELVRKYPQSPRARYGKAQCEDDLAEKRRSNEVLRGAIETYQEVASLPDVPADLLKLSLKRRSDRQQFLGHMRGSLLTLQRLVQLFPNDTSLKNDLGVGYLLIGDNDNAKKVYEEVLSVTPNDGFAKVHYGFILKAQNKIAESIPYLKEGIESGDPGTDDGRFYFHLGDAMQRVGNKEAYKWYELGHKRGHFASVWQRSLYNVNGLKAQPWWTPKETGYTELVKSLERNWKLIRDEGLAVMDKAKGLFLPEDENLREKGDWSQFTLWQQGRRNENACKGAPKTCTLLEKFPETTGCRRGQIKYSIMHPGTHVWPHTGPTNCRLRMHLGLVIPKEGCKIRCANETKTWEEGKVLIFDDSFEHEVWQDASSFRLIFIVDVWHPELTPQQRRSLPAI
Test: SPE-MS AspH inhibition assay (LOPAC screen at fixed 20 μM and IC50 dose-response), hydroxylation of cyclic peptide hFX-CP101–119
Type: biochemical
Details: plate 5 (Pfitzer), test compounds at fixed 20 μM
Report the figure along with its unit, number first.

Solved entries:
CN1CCC[C@@H]1Cc1c[nH]c2ccc(CCS(=O)(=O)c3ccccc3)cc12
0.46%
O=C(NOCC1CC1)c1ccc(F)c(F)c1Nc1ccc(I)cc1Cl
28.96%
CC(C)Nc1cccnc1N1CCN(C(=O)c2cc3cc(NS(C)(=O)=O)ccc3[nH]2)CC1
28.61%

For Cn1c(=O)c(-c2c(Cl)cccc2Cl)cc2cnc(Nc3ccc(N4CCOCC4)cc3)nc21 , what is its reported Plate 5 (% inhibition)? 58.03%

Could you share which Plate 5 (% inhibition) value was measured for CC(=O)c1cccc(N[C@H]2[C@H](N)[C@@](NC(=O)N(C)C)([C@H](C)O)[C@@](C)(O)[C@@]2(O)COC(=O)c2c(C)cccc2O)c1 ? 21.27%

Give its Plate 5 (% inhibition) value. Item: CN(c1ccccc1CNc1nc(Nc2ccc3c(c2)CC(=O)N3)ncc1C(F)(F)F)S(C)(=O)=O 35.16%

So what's the measured Plate 5 (% inhibition) for this one? C=Cc1cc(O)cc2nc(-c3ccc(O)c(F)c3)oc12 30.36%

Item under review: Cc1cc(CCC[C@H](CC(=O)NO)C(=O)N[C@H](C(=O)N[C@H](C)c2ccccc2)C(C)(C)C)ccc1-c1ccccc1 . Reported Plate 5 (% inhibition)? 84.86%

Entry under review: Cc1c([N+](=O)[O-])cc2[nH]c(=O)c(=O)[nH]c2c1CN1CCCC1 . Reported Plate 5 (% inhibition)? 16.45%

Name the recorded Plate 5 (% inhibition) for CNC(=O)c1ccccc1Sc1ccc2c(/C=C/c3ccccn3)n[nH]c2c1 . -7.77%

# lookup: Plate 5 (% inhibition) of O=C(N[C@H]1CN2CCC1CC2)c1cc2ccoc2cn1 12.80%

# get_value(readout='Plate 5 (% inhibition)', item= CCOc1ncc(S(=O)(=O)N2CCN(CC)CC2)cc1-c1nc2c(CC)n(CCOC)nc2c(=O)[nH]1 ) 10.85%

# input compound: CC[C@H]1OC(=O)[C@H](C)[C@@H](O[C@H]2C[C@@](C)(OC)[C@@H](O)[C@H](C)O2)[C@H](C)[C@@H](O[C@@H]2O[C@H](C)C[C@H](N(C)C)[C@H]2O)[C@](C)(O)C[C@@H](C)CN(C)[C@H](C)[C@@H](O)[C@]1(C)O ; wanted: its Plate 5 (% inhibition) -3.13%

Field request: Plate 5 (% inhibition) | item: CC(=O)NC[C@H]1CN(c2ccc(N3CCOCC3)c(F)c2)C(=O)O1 44.21%

So what's the measured Plate 5 (% inhibition) for this one? CN(CCOc1ccc(NS(C)(=O)=O)cc1)CCc1ccc(NS(C)(=O)=O)cc1 [Dofetilide] -1.04%
